Where do the numbers come from? From the RNAGym collection of RNA variant scans (doi:10.7554/elife.80360).

B1: HDV Ribozyme (parent)
chain: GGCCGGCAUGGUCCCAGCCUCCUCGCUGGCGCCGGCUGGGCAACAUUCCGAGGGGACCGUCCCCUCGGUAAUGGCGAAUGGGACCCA

Variants of: B1
Assay: self-cleavage, relative activity (ratio to wild type); higher = more cleavage; co-transcriptional
Each entry gets false (0) if its self-cleavage stays under 0.4, and true (1) if its self-cleavage is 0.4 or above.

chain.sequence	classification
GGCCGGCAUGGUCCCAGCCUCCUCGCUGGCGCCGGCUGGGCACCAUUCCGAGUGGACCGUCCCCUCGGUAAUGGCGAAUGGGACCCA	true (1)
UGCCGGCAUGGUCCCAGCCUCCUCGCUGGCGCCGGCUGGGCAACAUUCCGAGGCGACCGUCCCCUCGGUAAUGGCGAAUGGGACCCA	false (0)
GGCCGGCGUGGUCCCAGCCUCCUCGCUGGCGCCGGCUGGGCAACAUUCCGAGGGGACCGUCCCCUCGGUAAUCGCGAAUGGGACCCA	true (1)
GGCCGGCAUGGACCCAGCAUCCUCGCUGGCGCCGGCUGGGCAACAUUCCGAGGGGACCGUCCCCUCGGUAAUGGCGAAUGGGACCCA	false (0)
GGCCGGCAUGGUCCCAGCCUCCUCGCUGGCGCCGGCUGGGCAACGUUCCGAGGGGACCGUCCCCUCGGUAAUGGCGAAUGAGACCCA	true (1)
GGCCGGCAUGGUCUCGGCCUCCUCGCUGGCGCCGGCUGGGCAACAUUCCGAGGGGACCGUCCCCUCGGUAAUGGCGAAUGGGACCCA	true (1)
GGCCGGCAUGGUCCCAGCCUCCUCGCUGGCGCCGGCUGGGCAACAUUCCGAGGGGAUCGUCCCCUGGGUAAUGGCGAAUGGGACCCA	true (1)
GGCCGGCAUAGUCCCAGCCUCCUCGCUGGCGCCGGCUGGGCAACAUUCCGAGGGGACCGUCCCCUCGGUAAGGGCGAAUGGGACCCA	false (0)
GGCCGGCAUGGUCCCAGCCUCCUCGCUGGCGCUGGCUGGGCAACAUUCCGAGGGGACCGUCCCCUCGGUAAUGGGGAAUGGGACCCA	false (0)
GGCCGGCAUGGUCCCAGCCUCCUCGCUGGCGCCGGCUGGGAAGCAUUCCGAGGGGACCGUCCCCUCGGUAAUGGCGAAUGGGACCCA	true (1)
